meta.source: ChEMBL document CHEMBL5620377

- target.of.assay: UniProtKB P35968
- Sequence (P35968 whole entry): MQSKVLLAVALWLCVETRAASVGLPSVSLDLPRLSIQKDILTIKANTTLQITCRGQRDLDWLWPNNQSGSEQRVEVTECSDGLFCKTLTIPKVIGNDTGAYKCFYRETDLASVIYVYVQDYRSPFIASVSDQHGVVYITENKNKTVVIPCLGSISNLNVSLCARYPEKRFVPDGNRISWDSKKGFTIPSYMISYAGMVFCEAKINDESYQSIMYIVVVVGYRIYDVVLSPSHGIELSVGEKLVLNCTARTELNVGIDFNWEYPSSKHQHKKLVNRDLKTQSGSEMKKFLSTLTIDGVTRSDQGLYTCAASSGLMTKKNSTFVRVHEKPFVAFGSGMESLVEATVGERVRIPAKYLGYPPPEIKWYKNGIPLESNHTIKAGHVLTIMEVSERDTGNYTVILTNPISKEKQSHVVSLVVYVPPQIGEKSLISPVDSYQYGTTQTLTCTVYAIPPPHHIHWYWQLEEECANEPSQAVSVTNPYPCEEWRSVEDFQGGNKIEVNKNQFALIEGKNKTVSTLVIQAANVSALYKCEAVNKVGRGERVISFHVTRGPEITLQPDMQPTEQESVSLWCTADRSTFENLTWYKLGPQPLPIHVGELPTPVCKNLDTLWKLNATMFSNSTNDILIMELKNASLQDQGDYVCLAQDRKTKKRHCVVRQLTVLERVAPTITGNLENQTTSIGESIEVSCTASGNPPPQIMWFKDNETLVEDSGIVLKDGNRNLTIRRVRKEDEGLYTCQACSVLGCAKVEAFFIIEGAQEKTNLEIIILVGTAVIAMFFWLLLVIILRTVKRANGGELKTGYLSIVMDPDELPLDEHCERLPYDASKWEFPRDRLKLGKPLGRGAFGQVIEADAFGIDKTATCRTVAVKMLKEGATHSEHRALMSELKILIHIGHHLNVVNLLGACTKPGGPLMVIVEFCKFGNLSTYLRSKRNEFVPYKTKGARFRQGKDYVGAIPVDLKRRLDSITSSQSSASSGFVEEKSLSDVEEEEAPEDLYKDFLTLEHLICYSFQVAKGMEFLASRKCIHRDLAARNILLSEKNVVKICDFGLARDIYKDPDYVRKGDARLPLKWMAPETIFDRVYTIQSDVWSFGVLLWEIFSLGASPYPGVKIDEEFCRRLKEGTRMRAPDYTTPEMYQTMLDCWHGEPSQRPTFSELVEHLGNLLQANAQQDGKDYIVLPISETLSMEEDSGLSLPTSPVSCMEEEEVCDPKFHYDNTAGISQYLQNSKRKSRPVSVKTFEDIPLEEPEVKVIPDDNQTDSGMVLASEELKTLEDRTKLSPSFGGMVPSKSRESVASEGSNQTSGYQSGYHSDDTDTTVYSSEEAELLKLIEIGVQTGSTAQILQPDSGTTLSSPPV
- experiment.notes: Inhibition of recombinant human VEGFR2 using Poly (Glu,Tyr) 4:1 as substrate incubated for 1 hr by ELISA
pIC50: −log10 of the molar value.
measured.property: pIC50

{"columns": ["compound", "reported"],
 "data": [
  ["COc1cc2c(Oc3ccc4[nH]c(C)cc4c3F)ccnc2cc1OCC1(N)CC1 [CATEQUENTINIB]", 9.70]
]}
